Each entry below carries its measured IC50, system: Adenosine kinase (Homo sapiens).
Sequence (P55263 whole entry): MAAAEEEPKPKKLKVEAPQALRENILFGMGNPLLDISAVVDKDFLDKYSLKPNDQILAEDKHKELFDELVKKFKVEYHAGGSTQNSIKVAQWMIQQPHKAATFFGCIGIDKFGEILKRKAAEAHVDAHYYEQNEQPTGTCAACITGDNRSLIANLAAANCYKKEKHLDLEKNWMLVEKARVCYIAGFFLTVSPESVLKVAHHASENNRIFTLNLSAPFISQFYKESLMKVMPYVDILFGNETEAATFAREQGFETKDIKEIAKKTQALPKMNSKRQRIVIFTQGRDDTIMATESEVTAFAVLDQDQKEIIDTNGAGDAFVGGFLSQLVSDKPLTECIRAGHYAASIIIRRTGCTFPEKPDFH

- OC[C@H]1O[C@@H](n2ccc3c(-c4cc[nH]c4)ncnc32)[C@H](O)[C@@H]1O: > 10 µM
- OC[C@H]1O[C@@H](n2cc(F)c3c(-c4ccoc4)ncnc32)[C@H](O)[C@@H]1O: > 10 µM
- OC[C@H]1O[C@@H](n2cc(Cl)c3c(-c4ccoc4)ncnc32)[C@H](O)[C@@H]1O: 3.4 µM
- CCCCCCCCCCCCCCCCCCOP(=O)(O)OC[C@H]1O[C@@H](n2ccc3c(-c4ccco4)ncnc32)[C@H](O)[C@@H]1O: 2.4 µM

Looking up OC[C@H]1O[C@@H](n2ccc3c(-c4cccs4)ncnc32)[C@H](O)[C@@H]1O , I see its IC50 listed as > 5 µM

Looking up OC[C@H]1O[C@@H](n2ccc3c(-c4cn[nH]c4)ncnc32)[C@H](O)[C@@H]1O , I see its IC50 listed as > 20 µM

Looking up OC[C@H]1O[C@@H](n2cc(Cl)c3c(-c4ccccc4)ncnc32)[C@H](O)[C@@H]1O , I see its IC50 listed as > 10 µM

Looking up OC[C@H]1O[C@@H](n2cc(F)c3c(-c4nccs4)ncnc32)[C@H](O)[C@@H]1O , I see its IC50 listed as > 20 µM
